Hello, the source for this data is paper PMC4858736, in case you need it.

target: DisA (Bacillus subtilis)
Sequence (P37573 whole entry): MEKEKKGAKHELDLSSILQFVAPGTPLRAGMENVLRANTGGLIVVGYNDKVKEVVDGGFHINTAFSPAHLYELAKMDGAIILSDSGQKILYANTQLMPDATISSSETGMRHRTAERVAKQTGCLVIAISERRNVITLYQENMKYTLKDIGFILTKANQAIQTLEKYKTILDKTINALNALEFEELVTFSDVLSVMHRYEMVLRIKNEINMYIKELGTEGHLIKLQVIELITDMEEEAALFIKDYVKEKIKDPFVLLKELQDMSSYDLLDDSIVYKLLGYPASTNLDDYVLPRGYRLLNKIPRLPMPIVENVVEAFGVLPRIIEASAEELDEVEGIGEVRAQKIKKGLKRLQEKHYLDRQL
endpoint: IC50
Could you kindly put the unit after your number?

Lab book: IC50 of O=C(O[C@@H]1Cc2c(O)cc(O)cc2O[C@@H]1c1cc(O)c(O)c2c(=O)c(O)cc([C@H]3Oc4cc(O)cc(O)c4C[C@H]3O)cc12)c1cc(O)c(O)c(O)c1 [TF2B, theaflavin-3′-gallate] noted as 23.6 µM
